Known phenotypic distance of a selection of compounds
Test system: FT3469 (normal neural stem cell line)
Assay: phenotypic distance (Euclidean, principal components) from DMSO controls (arbitrary units); higher = stronger morphological change
Settings: 3000 nM; exposure time: 72 h
Counter-ions that a name gives are not always drawn.

Compound: Cc1cc(C)c(CN2CCc3c(Cl)cc(-c4c(C)noc4C)c(Cl)c3C2=O)c(=O)[nH]1
phenotypic distance: 0.451
--
Compound: CO[C@H]1C(=O)[C@]2(C)[C@@H](OC)C[C@H]3OC[C@@]3(OC(C)=O)[C@H]2[C@H](OC(=O)c2ccccc2)[C@]2(O)C[C@H](OC(=O)[C@H](O)[C@@H](NC(=O)OC(C)(C)C)c3ccccc3)C(C)=C1C2(C)C
phenotypic distance: 3.95
--
Compound: CCCCCCNC(=O)n1cc(F)c(=O)[nH]c1=O
phenotypic distance: 1.47
--
Compound: Clc1ccc(COC(Cn2ccnc2)c2ccc(Cl)cc2Cl)cc1 (stereo unspecified) [Econazole nitrate]
phenotypic distance: 0.632
--
Compound: COc1cc(N)c(Cl)cc1C(=O)NC1CCN(CCCOc2ccc(F)cc2)CC1OC (stereo unspecified) [Cisapride]
phenotypic distance: 0.797
--
Compound: Nc1ccc(-c2ccc3ncc4ccc(=O)n(-c5cccc(C(F)(F)F)c5)c4c3c2)cn1
phenotypic distance: 3.65
--
Compound: CCC(C)(C)C(=O)O[C@H]1C[C@@H](C)C=C2C=C[C@H](C)[C@H](CC[C@@H]3C[C@@H](O)CC(=O)O3)[C@H]21
phenotypic distance: 3.39
--
Compound: Cc1ncc(CO)c(CO)c1O [Pyridoxine hydrochloride]
phenotypic distance: 0.525
--
Compound: CN1C(=O)[C@@]23C[C@]4([C@]56C[C@@]78SS[C@@](CO)(C(=O)N7[C@H]5Nc5ccccc56)N(C)C8=O)c5ccccc5N[C@@H]4N2C(=O)[C@]1(CO)SS3
phenotypic distance: 9.44
--
Compound: COc1nc(C)nc(Cl)c1NC1=NCCN1
phenotypic distance: 0.873
--
Compound: O=C(O)c1ccc(-c2c[nH]c3ncc(-c4ccccc4)cc23)cc1C1CCCC1
phenotypic distance: 2.49
--
Compound: CC(C)C[C@H](NC(=O)[C@H](CCc1ccccc1)NC(=O)CN1CCOCC1)C(=O)N[C@@H](Cc1ccccc1)C(=O)N[C@@H](CC(C)C)C(=O)[C@@]1(C)CO1
phenotypic distance: 7.23
--
Compound: CC(C)N1CCN(c2ccc(OCC3COC(Cn4cncn4)(c4ccc(Cl)cc4Cl)O3)cc2)CC1 (stereo unspecified)
phenotypic distance: 1.17
--
Compound: C/C=C1\NC(=O)[C@H]2CSSCC/C=C/[C@H](CC(=O)N[C@H](C(C)C)C(=O)N2)OC(=O)[C@H](C(C)C)NC1=O
phenotypic distance: 8.06
--
Compound: CCOC(=O)C1=C(C)NC(C)=C(C(=O)OCC)C1c1c(F)c(F)c(F)c(F)c1F
phenotypic distance: 1.01
--
Compound: COC(=O)Nc1nc2cc(Sc3ccccc3)ccc2[nH]1
phenotypic distance: 2.71

---

Known phenotypic distance of a selection of compounds
Tested on: E21 (patient-derived glioblastoma stem cells of mesenchymal subtype)
Assay: phenotypic distance (Euclidean, principal components) from DMSO controls (arbitrary units); higher = stronger morphological change
Conditions: 1000 nM; exposure time: 72 h
Structures can show the parent of a compound that is named as a salt.
Recorded endpoint: phenotypic distance

Compound: C#C[C@]1(O)CC[C@H]2[C@@H]3CCC4=CCCC[C@@H]4[C@H]3CC[C@@]21C
Result: 0.692
--
Compound: CCN(CC)CCCC(C)Nc1c2ccc(Cl)cc2nc2ccc(OC)cc12 (stereo not drawn) [Quinacrine dihydrochloride hydrate]
Result: 1.12
--
Compound: CC(=O)OC[C@H]1O[C@@H]([S-])[C@H](OC(C)=O)[C@@H](OC(C)=O)[C@@H]1OC(C)=O.CCP(CC)CC.[Au+]
Result: 2.27
--
Compound: OC[C@H]1O[C@@H](Oc2ccc(O)cc2)[C@H](O)[C@@H](O)[C@@H]1O
Result: 0.568
--
Compound: O=C(C1CC1)N1CC[C@@H](Cc2n[nH]c(=O)n2-c2ccc(-c3ccc4occc4c3)cc2)C1
Result: 2.59
--
Compound: CCCCCCNC(=O)n1cc(F)c(=O)[nH]c1=O
Result: 0.744
--
Compound: CC[C@@H]1C(=O)N(C)c2cnc(Nc3ccc(C(=O)N[C@H]4CC[C@H](N5CCN(CC6CC6)CC5)CC4)cc3OC)nc2N1C(C)C
Result: 6.04
--
Compound: COc1cc2c(NC3CCN(C(C)C)CC3)nc(C3CCCCC3)nc2cc1OCCCN1CCCC1
Result: 0.957

---

System: E21
Assay: phenotypic distance (Euclidean, principal components) from DMSO controls (arbitrary units); higher = stronger morphological change
Details: 4.1 nM; exposure time: 72 h
Where a name gives a salt, the structure may show the parent alone.

Compound: CCN(CC)Cc1ccc(C(=O)N(CCc2ccccc2OC)[C@@H]2CCNC2)cc1
Target desc: E21
phenotypic distance: 0.354

Compound: OC(c1cc(C(F)(F)F)nc2c(C(F)(F)F)cccc12)C1CCCCN1 (stereo not drawn) [Mefloquine hydrochloride]
Target desc: E21
phenotypic distance: 0.776

Compound: Cc1ccc(S(=O)(=O)/C=C/C#N)cc1
Target desc: E21
phenotypic distance: 0.363

Compound: COc1cc(/C=C/C(=O)N2CCC=CC2=O)cc(OC)c1OC
Target desc: E21
phenotypic distance: 1.09

Compound: CCCCCCCCCCCCCC(=O)O[C@@H]1[C@@H](C)[C@@]2(O)[C@@H](C=C(CO)C[C@]3(O)C(=O)C(C)=C[C@@H]23)[C@@H]2C(C)(C)[C@]12OC(C)=O [Phorbol 12-myristate 13-acetate]
Target desc: E21
phenotypic distance: 2.4

Compound: CN(C(=O)CN(CCO)CC(=O)N(C)C(C)(C)Cc1ccccc1)C(C)(C)Cc1ccccc1
Target desc: E21
phenotypic distance: 1.27

Compound: Cc1cc(CN2CCN(c3c(Br)cnc4nc(-c5ccc(N6CCN(C)CC6)cc5)[nH]c34)CC2)no1
Target desc: E21
phenotypic distance: 1.03

Compound: Clc1ccc(COC(Cn2ccnc2)c2ccc(Cl)cc2Cl)cc1 (stereo not drawn) [Econazole nitrate]
Target desc: E21
phenotypic distance: 0.651

---

System: E13 (patient-derived glioblastoma stem cells of classical subtype)
Assay: surviving fraction (nuclei count normalised to DMSO); higher = more cells surviving (less toxic)
Conditions: 333.333 nM; exposure time: 72 h
Structures can show the parent of a compound that is named as a salt.

Compound: O=[N+]([O-])c1ccc2c(c1)S(=O)(=O)C=C2
surviving fraction: 0.472
//
Compound: Cc1ccc(NC(=O)c2ccc3c(c2)OCCO3)cc1NC(=O)c1ccc2nc(OCCN3CCCC3)ccc2c1
surviving fraction: 0.347
//
Compound: Nc1ncn([C@@H]2O[C@H](CO)[C@@H](O)[C@H]2O)c(=O)n1
surviving fraction: 0.755
//
Compound: CC(C)C[C@H](NC(=O)[C@H](Cc1ccccc1)NC(=O)c1cnccn1)B(O)O
surviving fraction: 0.000925
//
Compound: COc1cc2nc(N3CCN(C(=O)c4ccco4)CC3)nc(N)c2cc1OC [Prazosin hydrochloride]
surviving fraction: 1.04
//
Compound: CC(C)C[C@H](NC(=O)[C@H](Cc1ccccc1)C[C@@H](O)[C@H](Cc1ccccc1)NC(=O)OC(C)(C)C)C(=O)N[C@@H](Cc1ccccc1)C(N)=O
surviving fraction: 1.09

---

Test system: E28 (patient-derived glioblastoma stem cells of classical subtype)
Test: surviving fraction (nuclei count normalised to DMSO); higher = more cells surviving (less toxic)
Details: 4.1 nM; exposure time: 72 h
Known surviving fraction of a selection of compounds
Recorded endpoint: surviving fraction

Compound: CCCCCCCCCCCCCC(=O)O[C@@H]1[C@@H](C)[C@@]2(O)[C@@H](C=C(CO)C[C@]3(O)C(=O)C(C)=C[C@@H]23)[C@@H]2C(C)(C)[C@]12OC(C)=O [Phorbol 12-myristate 13-acetate]
Recorded endpoint: surviving fraction
Result: 0.75
//
Compound: CC1=C(/C=C/C(C)=C/C=C/C(C)=C/C(=O)Nc2ccc(O)cc2)C(C)(C)CCC1 [Retinoic acid p-hydroxyanilide]
Recorded endpoint: surviving fraction
Result: 1.11
//
Compound: COC(=O)C[C@](O)(CCCC(C)(C)O)C(=O)O[C@@H]1C(OC)=C[C@]23CCCN2CCc2cc4c(cc2[C@H]13)OCO4 [Homoharringtonine]
Recorded endpoint: surviving fraction
Result: 0.694
//
Compound: CC(C)C[C@H](NC(=O)CNC(=O)c1cc(Cl)ccc1Cl)B1OC(=O)C(CC(=O)O)(CC(=O)O)O1 [MLN9708]
Recorded endpoint: surviving fraction
Result: 0.244
//
Compound: Oc1ccc(OCc2ccccc2)cc1 [Monobenzone]
Recorded endpoint: surviving fraction
Result: 1.09
//
Compound: CCOC(=O)C1=C(C)NC(C)=C(C(=O)OCC)C1c1c(F)c(F)c(F)c(F)c1F [Nemadipine-A]
Recorded endpoint: surviving fraction
Result: 0.9
//
Compound: C[C@@]12C(=O)OC(=O)[C@]1(C)[C@H]1CC[C@@H]2O1 [Cantharidin]
Recorded endpoint: surviving fraction
Result: 1.04
